Assignment: determine reported Fold shift (HGF) for the given binders.
target: T1, rhesus c-Met on 4MBr-5 cells (rhesus, UniProt F7H1K4 25-1381, Natural c-Met is cleaved at the furin site (KRKKR/S) into disulphide-linked alpha and beta subunits; given here as one mature polypeptide.); test: flow cytometry, 4MBr-5 cells; EC50 with 50 ng/mL HGF against EC50 without HGF
T1 construct: also called rhesus c-Met antigen
T1 sequence (F7H1K4 entry or part of it limits assumed): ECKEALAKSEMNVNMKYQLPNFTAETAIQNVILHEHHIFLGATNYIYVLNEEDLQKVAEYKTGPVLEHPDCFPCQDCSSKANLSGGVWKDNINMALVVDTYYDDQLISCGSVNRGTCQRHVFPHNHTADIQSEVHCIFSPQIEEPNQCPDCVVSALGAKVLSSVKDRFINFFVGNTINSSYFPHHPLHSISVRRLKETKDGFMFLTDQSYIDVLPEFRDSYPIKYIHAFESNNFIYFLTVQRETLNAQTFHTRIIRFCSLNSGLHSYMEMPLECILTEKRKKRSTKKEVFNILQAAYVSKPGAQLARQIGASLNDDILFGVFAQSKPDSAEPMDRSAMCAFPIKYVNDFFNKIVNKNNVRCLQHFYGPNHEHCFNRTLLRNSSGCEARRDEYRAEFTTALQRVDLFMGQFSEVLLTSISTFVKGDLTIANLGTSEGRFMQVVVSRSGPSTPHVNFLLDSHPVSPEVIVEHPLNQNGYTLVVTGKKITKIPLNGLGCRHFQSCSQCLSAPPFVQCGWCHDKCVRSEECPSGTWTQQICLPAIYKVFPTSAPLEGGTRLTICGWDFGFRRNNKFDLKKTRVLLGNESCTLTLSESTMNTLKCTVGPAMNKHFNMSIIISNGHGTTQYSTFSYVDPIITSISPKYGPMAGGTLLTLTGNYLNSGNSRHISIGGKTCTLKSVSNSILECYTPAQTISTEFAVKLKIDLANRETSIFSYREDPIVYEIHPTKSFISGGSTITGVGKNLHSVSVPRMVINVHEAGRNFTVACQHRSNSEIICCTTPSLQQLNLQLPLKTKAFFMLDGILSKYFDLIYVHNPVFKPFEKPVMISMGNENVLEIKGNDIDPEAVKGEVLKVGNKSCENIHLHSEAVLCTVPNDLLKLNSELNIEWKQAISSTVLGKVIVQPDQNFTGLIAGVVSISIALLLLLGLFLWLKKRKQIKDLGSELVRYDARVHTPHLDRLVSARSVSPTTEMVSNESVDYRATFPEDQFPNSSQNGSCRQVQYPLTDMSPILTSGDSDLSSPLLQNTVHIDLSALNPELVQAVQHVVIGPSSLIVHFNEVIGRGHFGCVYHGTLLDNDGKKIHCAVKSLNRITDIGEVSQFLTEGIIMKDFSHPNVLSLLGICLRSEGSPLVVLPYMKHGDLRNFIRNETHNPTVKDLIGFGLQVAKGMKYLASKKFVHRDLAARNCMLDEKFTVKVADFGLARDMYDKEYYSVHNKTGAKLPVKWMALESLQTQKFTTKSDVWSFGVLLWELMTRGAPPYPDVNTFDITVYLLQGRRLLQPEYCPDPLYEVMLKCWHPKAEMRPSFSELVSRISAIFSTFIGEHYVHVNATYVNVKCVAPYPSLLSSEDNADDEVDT
# number only, unit fold dropped from output

Query: I'd like to know its Fold shift (HGF). The binder in question is mAb3b (antibody, human IgG1, kappa, V domains shown, Humanized IgG1 kappa, HC-41C, from wt/41C-chi-mAb3; also called humanized HC-41C antibody mAb3b) VH: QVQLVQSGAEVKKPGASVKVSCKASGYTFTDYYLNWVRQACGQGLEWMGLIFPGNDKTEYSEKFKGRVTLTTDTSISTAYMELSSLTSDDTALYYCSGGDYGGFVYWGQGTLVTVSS VL: DIQMTQSPSSLSASVGDRVTISCGASENIYGALNWYQQQPGKAPKVLIFGATNLADGVPSRFSGSGSGTDFTLTISSLQPEDFATYYCQNVLSSPLTFGQGTKLEIKR
Reply: 1.8

Query: I'd like to know its Fold shift (HGF). The binder in question is mAb3a (antibody, human IgG1, kappa, V domains shown, Humanized IgG1 kappa, HC-41C, from wt/41C-chi-mAb3; also called humanized HC-41C antibody mAb3a) VH: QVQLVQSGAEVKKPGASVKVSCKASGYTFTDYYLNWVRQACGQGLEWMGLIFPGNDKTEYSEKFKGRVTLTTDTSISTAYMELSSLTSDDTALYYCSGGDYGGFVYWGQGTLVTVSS VL: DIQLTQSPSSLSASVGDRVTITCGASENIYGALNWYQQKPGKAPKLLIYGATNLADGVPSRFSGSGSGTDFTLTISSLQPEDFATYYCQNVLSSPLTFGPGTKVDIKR
Reply: 0.8

Query: I'd like to know its Fold shift (HGF). The binder in question is mAb2a (antibody, human IgG1, kappa, V domains shown, Humanized IgG1 kappa, HC-41C, from wt/41C-chi-mAb2; also called humanized HC-41C antibody mAb2a) VH: QVQLVQSGAELRKPGSSVKVSCRASGYVFPDYEMHWVRQACGQGLEWMGAFDPETGDTTYNQNFKGRVTIAADKSTSTAYMELRSLRSEDTAIYYCARDYKYLYYYAMDNWGQGTMVTVSS VL: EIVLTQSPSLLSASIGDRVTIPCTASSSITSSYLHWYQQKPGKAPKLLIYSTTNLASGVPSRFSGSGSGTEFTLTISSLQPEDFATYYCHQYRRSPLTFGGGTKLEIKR
Reply: 1.4
